target: T1, DOR (Mus musculus), P32300
T1 chain: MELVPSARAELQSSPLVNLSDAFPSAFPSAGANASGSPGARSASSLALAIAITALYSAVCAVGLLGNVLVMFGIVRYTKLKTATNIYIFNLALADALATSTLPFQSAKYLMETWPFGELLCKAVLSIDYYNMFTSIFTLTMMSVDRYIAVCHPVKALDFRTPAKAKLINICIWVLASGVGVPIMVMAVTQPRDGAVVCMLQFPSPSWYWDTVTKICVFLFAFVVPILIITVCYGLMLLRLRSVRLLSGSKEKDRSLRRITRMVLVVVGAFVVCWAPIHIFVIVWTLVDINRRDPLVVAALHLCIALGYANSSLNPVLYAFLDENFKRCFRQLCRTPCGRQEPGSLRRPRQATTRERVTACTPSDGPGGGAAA
method-description: radioligand
assay-conditions: modification not given
measured-parameter: Kd (nM)

{"binder": "YAFEIIG [[125I]-3 (125I-GATE3-8)]", "measured-parameter": "Kd", "recorded-measurement": 0.11}

These data points were gathered from paper PMC4472604.
